# TESTED_SYSTEM: b-Raf (V600E) (Homo sapiens (Human), UniProt P15056, V600E)
# Sequence (P15056 whole entry V600E): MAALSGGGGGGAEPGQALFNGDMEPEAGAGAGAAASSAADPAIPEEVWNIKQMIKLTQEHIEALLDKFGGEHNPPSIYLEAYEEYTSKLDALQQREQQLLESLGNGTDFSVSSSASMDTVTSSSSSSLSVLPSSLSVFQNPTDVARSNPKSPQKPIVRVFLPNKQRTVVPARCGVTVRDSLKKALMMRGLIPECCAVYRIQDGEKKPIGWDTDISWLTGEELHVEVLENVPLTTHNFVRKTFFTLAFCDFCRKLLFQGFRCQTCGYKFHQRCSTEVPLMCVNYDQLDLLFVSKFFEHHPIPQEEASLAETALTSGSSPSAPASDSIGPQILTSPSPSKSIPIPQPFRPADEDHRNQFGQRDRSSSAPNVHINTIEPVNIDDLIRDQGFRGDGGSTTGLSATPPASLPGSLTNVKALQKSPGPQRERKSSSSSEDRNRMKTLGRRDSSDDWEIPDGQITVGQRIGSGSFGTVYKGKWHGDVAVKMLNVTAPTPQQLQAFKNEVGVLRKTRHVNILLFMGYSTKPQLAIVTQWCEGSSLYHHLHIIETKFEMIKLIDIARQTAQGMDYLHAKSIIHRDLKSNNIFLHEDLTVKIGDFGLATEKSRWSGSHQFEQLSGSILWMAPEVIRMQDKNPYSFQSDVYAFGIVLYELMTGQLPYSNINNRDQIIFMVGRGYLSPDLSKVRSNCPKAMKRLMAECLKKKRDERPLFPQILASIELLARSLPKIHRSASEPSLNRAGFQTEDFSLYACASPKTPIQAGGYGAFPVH
# CONDITIONS_USED: read-out: b-Raf IC-50; AlphaScreen, 60 min pre-incubation, 3 hours reaction
READOUT_NAME: IC50 (nM)

Example cases with answers are listed next.
{"MOLECULE": "CCOc1nnc(-c2cc(NC(=O)c3ccnc(C4CC4)c3)ccc2C)cc1N1CCOCC1", "TESTED_SYSTEM": "b-Raf (V600E) (Homo sapiens (Human), UniProt P15056, V600E)", "UNIT": "nM", "IC50": 0.6}
{"MOLECULE": "CCNc1nc(-c2cc(NC(=O)c3cccc(C(C)(F)F)c3)ccc2C)cc(N2CCOCC2)n1", "TESTED_SYSTEM": "b-Raf (V600E) (Homo sapiens (Human), UniProt P15056, V600E)", "UNIT": "nM", "IC50": 1.3}
{"MOLECULE": "CCOc1nnc(-c2cc(NC(=O)c3ccnc(C4(C#N)CC4)c3)ccc2C)cc1N1CCOCC1", "TESTED_SYSTEM": "b-Raf (V600E) (Homo sapiens (Human), UniProt P15056, V600E)", "UNIT": "nM", "IC50": 0.7}
{"MOLECULE": "CCNc1nc(-c2cc(NC(=O)c3cnnc(C(C)(C)C#N)c3)ccc2C)cc(N2CCOCC2)n1", "TESTED_SYSTEM": "b-Raf (V600E) (Homo sapiens (Human), UniProt P15056, V600E)", "UNIT": "nM", "IC50": 3.4}
{"MOLECULE": "Cc1ccc(NC(=O)c2ccnc(C(C)(C)C#N)c2)cc1-c1cc(N2CCOCC2)nc(NC(C)(C)CO)n1", "TESTED_SYSTEM": "b-Raf (V600E) (Homo sapiens (Human), UniProt P15056, V600E)", "UNIT": "nM", "IC50": 1.4}
{"MOLECULE": "CCOc1nnc(-c2cc(NC(=O)c3ccnc(C(C)(C)C#N)c3)ccc2C)cc1N1CCOC[C@@H]1C", "TESTED_SYSTEM": "b-Raf (V600E) (Homo sapiens (Human), UniProt P15056, V600E)", "UNIT": "nM", "IC50": 3.8}
{"MOLECULE": "Cc1ncc(NC(=O)c2ccnc(C(C)(C)O)c2)cc1-c1cc(N2CCOCC2)n(C)c(=O)c1", "TESTED_SYSTEM": "b-Raf (V600E) (Homo sapiens (Human), UniProt P15056, V600E)", "UNIT": "nM", "IC50": 32.2}
{"MOLECULE": "CCC(F)(F)c1cc(C(=O)Nc2cnc(C)c(-c3cncc(N4CCOCC4)n3)c2)ccn1", "TESTED_SYSTEM": "b-Raf (V600E) (Homo sapiens (Human), UniProt P15056, V600E)", "UNIT": "nM", "IC50": 4.4}

1. Cc1ncc(NC(=O)c2ccnc(C3(C#N)CC3)c2)cc1-c1cc(N2CCOCC2)n2nccc2n1
2. Cc1ccc(NC(=O)c2cccc(C(C)(C)C#N)c2)cc1-c1cc(N2CCOCC2)c2nccn2n1
3. COc1nnc(-c2cc(NC(=O)c3cnnc(C(F)(F)F)c3)ccc2C)cc1N1CCOCC1
Query: Sort ascending by IC50. Provide your answer as the labels ordered per the instruction.
Response: 2, 3, 1

1. Cc1ccc(NC(=O)c2ccnc(C(F)F)c2)cc1-c1cc(N2CCOCC2)n(C)c(=O)c1
2. CCNc1nc(-c2cc(NC(=O)c3cccc(C(C)(C)C#N)c3)cnc2C)cc(N2CCOCC2)n1
3. COc1nnc(-c2cc(NC(=O)c3ccnc(C4CC4)c3)cnc2C)cc1N1CCOCC1
4. COc1cncc(NC(=O)c2ccc(C)c(-c3cc(N4CCOCC4)c(=O)n(C)c3)c2)c1
Query: Sort ascending by IC50. Provide your answer as the labels ordered per the instruction.
Response: 1, 3, 2, 4
(1: 1.1 nM, 3: 3.5 nM, 2: 9 nM, 4: 68.7 nM)

Hello, the source for this data is patent US9694016B2, in case you need it.
